Method description: folding stability dG unfold from chymotrypsin proteolysis; higher = more stable
Below, each entry is listed with its recorded folding stability dG unfold.
Assay endpoint: folding stability dG unfold (kcal/mol)

- Sequence: "SAGGSAGGSALDSLVPDIDLRVRVEPVPDDPSILRADVELSDGLVLEVEFLPSGVARVSLSGKGSAGGSAGG [r6_122_TrMRF]"
  Assay endpoint: "folding stability dG unfold"
  Reported value: -0.246
- Sequence: "SAGGIKIMIPPGMPEEEARELARMIASMLPDNGHNIDDVKVRPVKPMPPPDGEPHRMYEFEIKLEPPSAGGS [r16_266_TrROS]"
  Assay endpoint: "folding stability dG unfold"
  Reported value: 0.35
- Sequence: "SKKVKEITIEGAPPGAKVTITVEEKGDKLIVRVEVERNGKTETFEVEMTLDELKALLDAGYTIRITEVIPSA [r9_1021_TrROS_Hall]"
  Assay endpoint: "folding stability dG unfold"
  Reported value: 2.12
- Sequence: "SAGGKTIVIKVKTKEQAKALAEELAKKLKDAGYTVTVTYDEETGVVTVTVTVKVNGKTKKITLVLELPSAGG [r13_641_TrROS_Hall]"
  Assay endpoint: "folding stability dG unfold"
  Reported value: 3.05
- Sequence: "SAGGSAGGSAGEKDLPVIEVEFPFPSSFPLPLIKKFAEPFGVKKVEFFEDGTVKVLYVLDSAGGSAGGSAGG [r11_961_TrMRF]"
  Assay endpoint: "folding stability dG unfold"
  Reported value: 0.984
- Sequence: "SAGGAPGVPSVTVIPFDPSTGRALALVVDGDRVYVISSAVPLEVLRELGVDRVEPLPDGTLVAVSLASAGGS [r8_382_TrMRF]"
  Assay endpoint: "folding stability dG unfold"
  Reported value: 1.49
- Sequence: "SAGMEPVSIKITKIEKTPENKDYVIVTVTPPDGVPTEIKVPIEFYKSGKLKNATAEELVKLFPEYKLESAGG [r19_74_JUSTAS]"
  Assay endpoint: "folding stability dG unfold"
  Reported value: 2.68
- Sequence: "SAGMFVKIKFKTADKTVEELVKKIKEETGIPENAKITVIAEKSEDEGFVVIIEFDEEEVRDKIKEIVGSAGG [r19_215_TrMRF]"
  Assay endpoint: "folding stability dG unfold"
  Reported value: 1.35
